Species on record: Rattus norvegicus
Assay: Open TG-GATES - Regimen: Single
Format: toxicity, organism-based, Sprague-Dawley
Set-up: regimen Single, gender Male, age 6 weeks
Conditions: in vivo, po, 300 mg/kg, 6 h, tissue Plasma, route gavage, dose level Middle
endpoint_label: TBIL (mg/dL)

{"compound": "CNC(=C[N+](=O)[O-])NCCSCc1ccc(CN(C)C)o1 [RANITIDINE]", "endpoint_label": "TBIL", "unit_of_measurement": "mg/dL", "result_number": 0.1}
{"compound": "O=C(OC[C@H]1O[C@@H](OC(=O)c2cc(O)c(O)c(OC(=O)c3cc(O)c(O)c(O)c3)c2)[C@H](OC(=O)c2cc(O)c(O)c(OC(=O)c3cc(O)c(O)c(O)c3)c2)[C@@H](OC(=O)c2cc(O)c(O)c(OC(=O)c3cc(O)c(O)c(O)c3)c2)[C@@H]1OC(=O)c1cc(O)c(O)c(OC(=O)c2cc(O)c(O)c(O)c2)c1)c1cc(O)c(O)c(OC(=O)c2cc(O)c(O)c(O)c2)c1 [TANNIC ACID]", "endpoint_label": "TBIL", "unit_of_measurement": "mg/dL", "result_number": 0.6}
{"compound": "Cc1nnc2n1-c1ccc(Cl)cc1C(c1ccccc1Cl)=NC2 [TRIAZOLAM]", "endpoint_label": "TBIL", "unit_of_measurement": "mg/dL", "result_number": 0.068}
{"compound": "COC(=O)C1=C(C)NC(C)=C(C(=O)OC)C1c1ccccc1[N+](=O)[O-] [NIFEDIPINE]", "endpoint_label": "TBIL", "unit_of_measurement": "mg/dL", "result_number": 0.042}
{"compound": "CN/C(=N/CCSCc1nc[nH]c1C)NC#N [CIMETIDINE]", "endpoint_label": "TBIL", "unit_of_measurement": "mg/dL", "result_number": 0.1}

* * *

Species: Rattus norvegicus
Test: Open TG-GATES - Regimen: Single
Format: toxicity, organism-based, Sprague-Dawley
Set-up: regimen Single, gender Male, age 6 weeks
Details: in vivo, po, 100 mg/kg, 24 h, tissue Plasma, route gavage, dose level Low
Form field: gamma-GTP (one value per entry).
endpoint_label: gamma-GTP

{"molecule": "O=C(OC[C@H]1O[C@@H](OC(=O)c2cc(O)c(O)c(OC(=O)c3cc(O)c(O)c(O)c3)c2)[C@H](OC(=O)c2cc(O)c(O)c(OC(=O)c3cc(O)c(O)c(O)c3)c2)[C@@H](OC(=O)c2cc(O)c(O)c(OC(=O)c3cc(O)c(O)c(O)c3)c2)[C@@H]1OC(=O)c1cc(O)c(O)c(OC(=O)c2cc(O)c(O)c(O)c2)c1)c1cc(O)c(O)c(OC(=O)c2cc(O)c(O)c(O)c2)c1 [TANNIC ACID]", "result": "1 IU/L"}
{"molecule": "CNC(=C[N+](=O)[O-])NCCSCc1ccc(CN(C)C)o1 [RANITIDINE]", "result": "1 IU/L"}

* * *

Species on record: Rattus norvegicus
Assay: Open TG-GATES - Regimen: Single
Format: toxicity, organism-based, Sprague-Dawley
Set-up: regimen Single, gender Male, age 6 weeks
Conditions: in vivo, po, 300 mg/kg, 9 h, tissue Blood, route gavage, dose level Middle
Given measured Ret, output label 1 if it is greater than or equal to 10% and label 0 if not.

{"smiles_str": "O=C(OC[C@H]1O[C@@H](OC(=O)c2cc(O)c(O)c(OC(=O)c3cc(O)c(O)c(O)c3)c2)[C@H](OC(=O)c2cc(O)c(O)c(OC(=O)c3cc(O)c(O)c(O)c3)c2)[C@@H](OC(=O)c2cc(O)c(O)c(OC(=O)c3cc(O)c(O)c(O)c3)c2)[C@@H]1OC(=O)c1cc(O)c(O)c(OC(=O)c2cc(O)c(O)c(O)c2)c1)c1cc(O)c(O)c(OC(=O)c2cc(O)c(O)c(O)c2)c1", "cat": "label 1"}
{"smiles_str": "Cc1nnc2n1-c1ccc(Cl)cc1C(c1ccccc1Cl)=NC2", "cat": "label 0"}
{"smiles_str": "CNC(=C[N+](=O)[O-])NCCSCc1ccc(CN(C)C)o1", "cat": "label 0"}
{"smiles_str": "CN/C(=N/CCSCc1nc[nH]c1C)NC#N", "cat": "label 0"}
